measurement_protocol: chemical genetic growth profiling, strain panel (AID 1159580);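 also: tested at 20 µM; growth read once vehicle control cultures reached saturation at 30 °C; 1 = growth at the plate median or of vehicle wells; lower values mean less growth of the strain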
assay_context: S. cerevisiae deletion strains, growth OD, locus YOR061W, strain CKA2
The campaign covered roughly 5,500 compounds. About 2,000 (36%) were called active. Another 18% or so got no clear call; they are omitted. Rule as the data show it: active = normalized growth mostly below about 0.91 (no sharp cut-off); inconclusive = no clear call, values can overlap the other calls; inactive = mostly above about 0.92. The list shows a part of the results.
Returns: one label drawn from t for active, f for inactive

{"molecule": "COc1ccc2c(c1O)OCC1c3cc4c(cc3OC21)OCO4 (configuration not stated)", "class_label": "f"}
{"molecule": "OC(CN1CCN(c2nc3ccc(Cl)cc3s2)CC1)Cn1ccc2ccccc21 (configuration not stated)", "class_label": "f"}
{"molecule": "C=C1C(=O)O[C@@H]2C[C@@]3(C)CCC[C@H](C)C3=C[C@H]12", "class_label": "f"}
{"molecule": "COC(=O)[C@@H]1OC(=O)[C@H]2O[C@@]23[C@@]1(C)CCC1[C@@]2(C)CCC(=O)C(C)(C)C2C[C@@H](OC(C)=O)[C@]13C (some centres not stated)", "class_label": "f"}
{"molecule": "CC(C)NCC(O)c1cc(O)cc(O)c1 (configuration not stated)", "class_label": "f"}

Please state the recorded outcome for this molecule: `COc1ccc2c(c1)CCC(c1ccccc1)=C2c1ccc(OCCN2CCCC2)cc1`
t

Please state the recorded outcome for this molecule: `Cc1onc(-c2c(F)cccc2Cl)c1C(=O)ON=C1C2CC3CC(C2)CC1C3`
f

Please state the recorded outcome for this molecule: CC(C)C(C)/C=C/C(C)C1CCC2C3=CC=C4CC(O)CCC4(C)C3CCC21C (configuration not stated)
f

Please state the recorded outcome for this molecule: Oc1ccc2c(c1)OCC1c3cc4c(cc3OC21)OCO4 (configuration not stated)
f

Please state the recorded outcome for this molecule: `Cc1c(C(=S)Nc2ccccc2)sc2ccccc12`
f

---

measurement_protocol: chemical genetic growth profiling, strain panel (AID 1159580)
assay_context: S. cerevisiae deletion strains, growth OD, locus YLR102C, strain apc9, active compounds read low
Screen size: about 5,500 compounds; about 2,000 (36%) were called active. About 18% were inconclusive and are not listed. The list shows a part of the results.
attribute_measured: normalized growth
Please give only the number in your answer, with no unit.

{"molecule": "COC(=O)C(C)c1ccc(C(=O)c2cccs2)cc1 (stereo unspecified)", "normalized growth": 0.966}
{"molecule": "C=C1C(C)C2C(Cc3ccccc3)NC(=O)C23OC(=O)/C=C/C(O)CCCC(C)C/C=C/C3C1O (stereo unspecified)", "normalized growth": 1.01}
{"molecule": "CC(=O)OC1CCC2(C)C(=CC=C3C2CCC2(C)C3CCC2C(C)/C=C/C(C)C(C)C)C1(C)C (stereo unspecified)", "normalized growth": 0.988}
{"molecule": "COc1cc2c(cc1OC)C1Cc3ccc(OC)c(OC)c3CN1CC2 (stereo unspecified)", "normalized growth": 0.982}
{"molecule": "NC(N)=NS(=O)(=O)c1ccc(N)cc1", "normalized growth": 0.986}
{"molecule": "Nc1ccn(C2O[C@H](CO)[C@@H](O)[C@@H]2O)c(=O)n1 (stereo partly specified)", "normalized growth": 0.977}
{"molecule": "Cc1cc(NC(=O)C2=C(O)c3ccccc3S(=O)(=O)N2C)no1", "normalized growth": 0.95}
{"molecule": "CO/N=C(\\C(=O)N[C@@H]1C(=O)N2C(C(=O)O)=C(COC(C)=O)CS[C@H]12)c1csc(N)n1", "normalized growth": 0.997}

Quick one: normalized growth for `CCN(CC)C(=O)c1cccc(C)c1` ?
0.999

Quick one: normalized growth for `CC1(C)O[C@H]2[C@H](O)C[C@](O)(C(N)=O)C[C@H]2O1` ?
1.01

Quick one: normalized growth for `Clc1cccc(Cl)c1NC1=NCCN1` ?
1.01

---

Reported normalized growth values for a set of molecules
measurement_protocol: chemical genetic growth profiling, strain panel (AID 1159580)
assay_context: S. cerevisiae deletion strains, growth OD, locus YFL009W, strain cdc4, active compounds read low
Out of some 5,500 compounds screened, about 2,000 (36%) were called active. Inconclusive results (about 18%) are left out. This is one part of the list.
Please give only the number in your answer, with no unit.

Please review the entries below; each comes with its answer.
{"compound_structure": "COC(=O)c1sccc1-c1ccc(/C=C/[N+](=O)[O-])o1", "reported_value": 0.718}
{"compound_structure": "O=[N+]([O-])c1ccc(Sc2ssc(=S)c2-c2ccccc2)nc1", "reported_value": 0.948}
{"compound_structure": "Cc1ccc(NNC(=O)c2c(C)noc2C)cc1Cl", "reported_value": 0.986}
{"compound_structure": "Cc1cccc(NC(=S)NNC(=O)CSCc2cccc3ccccc23)c1", "reported_value": 0.99}

Quick one: normalized growth for `FC(F)(F)c1ccnc(N2CCCN(C(=S)Nc3ccc(Cl)cc3Cl)CC2)n1` ?
0.98

Quick one: normalized growth for `Cc1c(C(=O)N(Cc2ccccc2)Cc2cccs2)cnn1-c1ccc(Cl)cc1` ?
0.986

Quick one: normalized growth for `Cc1ccc(NC(=O)c2ccccc2N=Cc2cc(Cl)cc(Cl)c2O)c(N=Cc2cc(Cl)cc(Cl)c2O)c1` ?
0.93

Quick one: normalized growth for `O=C(Nc1ccc(OC(F)(F)F)cc1)N1CCN(c2nc(-c3ccccc3)ns2)CC1` ?
0.991

Quick one: normalized growth for `CC1(C)OC(=O)C(=Cc2cccn2-c2ccc(OC(F)(F)F)cc2)C(=O)O1` ?
0.96

---

Reported normalized growth values for a set of compounds
measurement_protocol: chemical genetic growth profiling, strain panel (AID 1159580)
assay_context: S. cerevisiae deletion strains, growth OD, locus YJL129C, strain trk1, active compounds read low
About 2,000 (36%) of roughly 5,500 compounds were called active. Roughly 18% stayed inconclusive and do not appear here. This is one part of the list.
Please give only the number in your answer, with no unit.

{"compound": "Cc1cccc(C)c1NC1=NCCCS1", "normalized growth": 1}

Turning now to a further record.
Quick one: normalized growth for CC(C)C(C)/C=C/C(C)C1CCC2C3=CC=C4CC(O)CCC4(C)C3CCC21C (stereo not given) ?
0.978

---

measurement_protocol: chemical genetic growth profiling, strain panel (AID 1159580);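 also: tested at 20 µM; growth read once vehicle control cultures reached saturation at 30 °C; 1 = growth at the plate median or of vehicle wells; lower values mean less growth of the strain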
assay_context: S. cerevisiae deletion strains, growth OD, locus YNL307C, strain MCK1, active compounds read low
In all, about 5,500 compounds went through this assay and about 2,000 (36%) were called active. Roughly 18% stayed inconclusive and do not appear here. This is one part of the list.
Please assign NO whenever normalized growth is at or above 1, and YES whenever it is below.

{"compound": "C=C1C(=O)OC2CC1C(OC(C)=O)C/C(C)=C/CC/C(C)=C/CC[C@]2(C)O (stereo partly drawn)", "class_label": "NO"}
{"compound": "COc1c(OC)c2occc2c2oc(=O)ccc12", "class_label": "YES"}
{"compound": "CC1(C)O[C@H]2[C@H](O)C[C@](O)(C(N)=O)C[C@H]2O1", "class_label": "NO"}
{"compound": "CC1=CC2C(CC1=O)C(C)=CCC2C(C)C (stereo not drawn)", "class_label": "YES"}
{"compound": "CCCCOC(=O)c1ccccc1C(=O)OCCCC", "class_label": "YES"}

Consider now this further compound.
I wonder whether Oc1ccc2c(c1)OCC1c3cc4c(cc3OC21)OCO4 (stereo not drawn) has normalized growth below 1. Can you tell?
YES

---

measurement_protocol: chemical genetic growth profiling, strain panel (AID 1159580);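 also: tested at 20 µM; growth read once vehicle control cultures reached saturation at 30 °C; 1 = growth at the plate median or of vehicle wells; lower values mean less growth of the strain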
assay_context: S. cerevisiae deletion strains, growth OD, locus YML032C, strain rad52, active compounds read low
In all, about 5,500 compounds went through this assay and about 2,000 (36%) were called active. Inconclusive results (about 18%) are left out. The list shows a part of the results.
Reported normalized growth values for a set of compounds
Please give only the number in your answer, with no unit.

Please review the entries below; each comes with its answer.
{"compound": "Oc1ccc2c(c1)OCC1c3cc4c(cc3OC21)OCO4 (stereo unspecified)", "normalized growth": 0.956}
{"compound": "CCCCN1CCCCC1C(=O)Nc1c(C)cccc1C (stereo unspecified)", "normalized growth": 0.982}
{"compound": "C=C1CCC(=O)C(C)CCC2C1CC2(C)C (stereo unspecified)", "normalized growth": 0.997}

Quick one: normalized growth for `COc1ccc([C@H]2Oc3cc(OC)cc(OC)c3C[C@H]2O)cc1` ?
1.01

Quick one: normalized growth for C/C1=C\CCC(=O)C2CC(C)(C)C2CC1 (stereo unspecified) ?
1.02

Quick one: normalized growth for `Nc1nc2ncc(=O)[nH]c2c(=O)[nH]1` ?
0.967

---

measurement_protocol: chemical genetic growth profiling, strain panel (AID 1159580);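 also: tested at 20 µM; growth read once vehicle control cultures reached saturation at 30 °C; 1 = growth at the plate median or of vehicle wells; lower values mean less growth of the strain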
assay_context: S. cerevisiae deletion strains, growth OD, locus YDR195W, strain ref2
Out of some 5,500 compounds screened, about 2,000 (36%) were called active. Roughly 18% stayed inconclusive and do not appear here. Some of the results follow.
attribute_measured: normalized growth
Please give only the number in your answer, with no unit.

Please review the entries below; each comes with its answer.
{"compound": "COc1cc2c(cc1OC)C1Cc3ccc(OC)c(OC)c3CN1CC2 (centres undefined)", "normalized growth": 0.955}
{"compound": "CO/N=C(\\C(=O)N[C@@H]1C(=O)N2C(C(=O)O)=C(CSc3nc(=O)c(O)nn3C)CS[C@H]12)c1csc(N)n1", "normalized growth": 1.01}
{"compound": "CCC(C)(C)C(=O)O[C@H]1C[C@@H](C)C=C2C=C[C@H](C)[C@H](CC[C@@H]3C[C@@H](O)CC(=O)O3)[C@H]21", "normalized growth": 1.01}
{"compound": "COc1ccc2c(c1)O[C@H]1c3ccc(OC)cc3OC[C@@H]21", "normalized growth": 0.976}
{"compound": "COc1cc([C@@H]2c3cc4c(c(O)c3C[C@H]3COC(=O)[C@@H]32)OCO4)cc(OC)c1OC", "normalized growth": 0.93}
{"compound": "COc1ccc([C@H]2Oc3cc(OC)cc(OC)c3C[C@H]2O)cc1", "normalized growth": 1.05}
{"compound": "CC(C)C(C)/C=C/C(C)[C@H]1CCC2C3=CCC4CC(=O)CC[C@]4(C)C3CC[C@@]21C (some centres undefined)", "normalized growth": 0.928}
{"compound": "CO/N=C(\\C(=O)N[C@@H]1C(=O)N2C(C(=O)O)=C(COC(C)=O)CS[C@H]12)c1csc(N)n1", "normalized growth": 0.989}

Turning now to a further record.
Quick one: normalized growth for COc1ccc2c(c1OC)C(=O)OC2[C@H]1c2c(cc3c(c2OC)OCO3)CCN1C (some centres undefined) ?
0.993
